Hello, the source for this data is patent EP0726261A1, in case you need it.

herbicidal effects on a 0-9 scale, BEAVA listing for selected compounds.
# Test system: Beta vulgaris
# Assay info: Herbicidal activity, postemergence test (Example 66)
# Format: in vivo
# Test context: post; 1000 g/ha; assessed visually twenty days after spraying
# Method: To evaluate their herbicidal activity, compounds according to the invention are tested using a representative range of plants: ZEAMX Zea mays ORYSA Oryza sativa GLXMA Glycine max BEAVA Beta vulgaris LIUUT Linum usitatissimum AVEFA Avena fatua ECHCG Echinochloa crus-galli SINAL Sinapsis alba […] The herbicidal effects of the test compounds are assessed visually twenty days after spraying the foliage and the soil and are recorded on a 0-9 scale. […]
Just the number, please, no unit after it.

# annotated cases, reported herbicidal effects on a 0-9 scale, BEAVA shown
CC(C)c1nsc(C(=O)NCc2cccs2)n1 [Example 9]	7
O=C(NCc1cccs1)c1nc(-c2ccc(F)cc2)ns1 [Example 14]	8

For the compound CC(NC(=O)c1nsc(-c2ccc(Cl)cc2)n1)c1cccs1 (racemic) [Example 23] , what herbicidal effects on a 0-9 scale, BEAVA is on record?
9

For the compound C[C@H](NC(=O)c1nc(-c2ccc(F)cc2)ns1)c1ccccc1 [Example 16] , what herbicidal effects on a 0-9 scale, BEAVA is on record?
9

For the compound CC(C)c1nsc(C(=O)NC(C)c2cccs2)n1 (racemic) [Example 1] , what herbicidal effects on a 0-9 scale, BEAVA is on record?
9

====

herbicidal effects on a 0-9 scale, LIUUT listing for selected compounds.
# System: Linum usitatissimum
# Assay info: Herbicidal activity, postemergence test (Example 66)
# Assay type: in vivo
# Test context: post; 1000 g/ha; assessed visually twenty days after spraying
# Protocol: To evaluate their herbicidal activity, compounds according to the invention are tested using a representative range of plants: ZEAMX Zea mays ORYSA Oryza sativa GLXMA Glycine max BEAVA Beta vulgaris LIUUT Linum usitatissimum AVEFA Avena fatua ECHCG Echinochloa crus-galli SINAL Sinapsis alba […] The herbicidal effects of the test compounds are assessed visually twenty days after spraying the foliage and the soil and are recorded on a 0-9 scale. […]
Just the number, please, no unit after it.

C=CCNC(=O)c1nc(-c2ccc(F)cc2)ns1	5
CC(C)CNC(=O)c1nc(-c2ccc(F)cc2)ns1	2

What herbicidal effects on a 0-9 scale, LIUUT appears in the records for this compound with Linum usitatissimum? C[C@H](NC(=O)c1nc(C(C)(C)C)ns1)c1ccccc1
9

====

herbicidal effects on a 0-9 scale, AVEFA listing for selected compounds.
# Tested on: Avena fatua
# Assay info: Herbicidal activity, postemergence test (Example 66)
# Format: in vivo
# Test context: post; 1000 g/ha; assessed visually twenty days after spraying

CC(NC(=O)c1nc(-c2ccc(F)cc2)ns1)c1cccs1 (racemic)	4
O=C(NCc1ccccc1)c1nc(-c2ccc(F)cc2)ns1	0
CC(C)c1nsc(C(=O)NCc2cccs2)n1	0
CC(NC(=O)c1nc(C(C)(C)C)ns1)c1cccs1 (racemic)	7

Turning to the following compound.
For the compound C[C@H](NC(=O)c1nsc(-c2ccc(Cl)cc2)n1)c1ccccc1 , what herbicidal effects on a 0-9 scale, AVEFA is on record?
0
